tested on: T47D; assay: NCI tumour cell line growth inhibition, 48 h
The source made the active and inactive calls. Rule as the data show it: active = GI50 up to about 1.1 µM and inactive = higher.
recorded-metric: GI50

>>> value("c1ccc(/N=c2/[nH]c3ccccc3s/c2=N/c2ccccc2)cc1")
"93.8 µM (inactive)"
>>> value("CCOC(=O)C1=C(C(=O)c2ccc(C)cc2)C(c2cccc([N+](=O)[O-])c2)C(C(=O)c2ccc(C)cc2)=C(C(=O)OCC)N1")
"2.41 µM (inactive)"
>>> value("CCOc1cc(/C=N/c2ccc(Oc3ccc(Cl)cc3)c(Cl)c2)ccc1O")
"36.3 µM (inactive)"
>>> value("Nc1ccccc1C(=O)CCC1C(=O)NC(=S)NC1=O")
"> 100 µM (inactive)"
>>> value("COc1cc(-c2c3c(cc4c2OCO4)[C@@H](Nc2ccc4c(c2)Cc2cc(N[C@@H]5c6cc7c(cc6C(c6cc(OC)c(O)c(OC)c6)[C@H]6C(=O)OC[C@H]56)OCO7)ccc2-4)[C@H]2COC(=O)[C@@H]2C3)cc(OC)c1O (some centres undefined)")
"98.2 µM (inactive)"
>>> value("O=C1CC(O)c2c(Br)sc(Br)c21 (centres undefined)")
"9.59 µM (inactive)"
>>> value("COc1cc(-c2ccccc2)cn2c1nc1ccccc12")
"20.7 µM (inactive)"
>>> value("Cc1c2cc[n+](C)cc2c(C)c2c1sc1ccccc12")
"0.798 µM (active)"
>>> value("COc1ccc(/C=C2\\N=C(c3ccccc3)OC2=O)cc1OC(C)=O")
"> 100 µM (inactive)"

Where do the numbers come from? From ChEMBL document CHEMBL1201862.
